Recorded values, source PubChem BioAssay (NCI).

# Test system: K-562 leukemia
# assayMethodText: NCI-60 one-dose screen, 48 h (100 = growth as untreated, 0 = no growth, -100 = all killed)
# conditionSet: 10 µM
Compounds without any hit were thinned out: in the full panel of roughly 83,000, 20% have a hit.
Let's look at some compounds and their measured growth.
Lab book: enter the figure in %, no units written.

Solved entries:
>  <compound>
COc1ccc(/C=C(\C)[N+](=O)[O-])cc1OC

>  <unitsSymbol>
%

>  <growth>
-9.93

$$$$
>  <compound>
Oc1c(I)cc(I)cc1I

>  <unitsSymbol>
%

>  <growth>
98.6

$$$$
>  <compound>
C[C@]12CC[C@H]3[C@@H](CCC4=CC(=O)CC[C@@H]43)[C@@H]1CC[C@@H]2OC(=O)N(CCCl)N=O

>  <unitsSymbol>
%

>  <growth>
29.5

$$$$

Answer with the recorded growth of COC1CC2C=C(C)/C=C/C=C/C(=O)NC(c3ccccc3)C/C=C/CCC(O)CC(=O)C2=C1O (stereo not drawn) only. -52.2

Answer with the recorded growth of O=[P+](O)c1ccccc1 only. 103

Answer with the recorded growth of CC(Cc1ccc2c(c1)OCO2)NN (stereo not drawn) only. 82

Answer with the recorded growth of [O-][n+]1ccccc1S only. 31.2

Answer with the recorded growth of CC12OOC(c3ccccc31)c1c2ccc2ccccc12 (stereo not drawn) only. -82.8

Answer with the recorded growth of COc1cc([N+](=O)[O-])c2ncccc2c1[N+](=O)[O-] only. 29.4

Answer with the recorded growth of CC(=O)[O][Hg][c]1c(C)c(C)cc(C)c1C only. -10.1

Answer with the recorded growth of COC(C(=O)C(O)C(C)O)C1Cc2cc3cc(OC4CC(OC(C)=O)C(OC5CC(O)C(OC)C(C)O5)C(C)O4)cc(O)c3c(O)c2C(=O)C1OC1CC(OC2CC(OC3CC(C)(O)C(OC(=O)C(C)C)C(C)O3)C(O)C(C)O2)C(O)C(C)O1 (stereo not drawn) only. -68.4

Answer with the recorded growth of CC(=O)Nc1c2sscc-2n(C)c1=O only. -72.9

Answer with the recorded growth of [Cl][Hg][c]1ccc2ccccc2c1 only. -13.1

Answer with the recorded growth of O=C(CBr)Nc1ccccc1 only. 39.4

Answer with the recorded growth of C=C1C(=O)O[C@@H]2C[C@@H](C)[C@@H]3C=CC(=O)[C@@]3(C)[C@@H](O)[C@H]12 only. -56.9

Answer with the recorded growth of [Cl][Sn]([c]1ccccc1)([c]1ccccc1)[c]1ccccc1 only. 0.0368

Answer with the recorded growth of C/C1=C\[C@H](C)C[C@H](C)OC(=O)C[C@H](c2ccc(O)cc2)NC(=O)[C@@H](Cc2c(Br)[nH]c3ccccc23)N(C)C(=O)[C@H](C)NC(=O)[C@@H](C)C1 only. 0.288

Answer with the recorded growth of COC(=O)C1C(O)C(C)C(O)C(C)/C=C\C=C(C)C(=O)Nc2c(C)c(OC(C)=O)c3c(c2O)C(=O)C(C)=C2OCOC(=C23)C(C)=CC(C)(O)C(O)C(C)C1O (stereo not drawn) only. 106

----------
Let's look at some compounds and their measured growth.
# Test system: RPMI-8226 leukemia
# assayMethodText: NCI-60 one-dose screen, 48 h (100 = growth as untreated, 0 = no growth, -100 = all killed)
# conditionSet: 10 µM
Compounds without any hit were thinned out: in the full panel of roughly 83,000, 20% have a hit. The source made the active and inactive calls. Rule for the calls: active = growth percent below 10; inactive = the rest.

Solved entries:
>  <compound>
CCCCCCCC[N+]12CN3CN(CN(C3)C1)C2

>  <growth>
90.1% (inactive)

$$$$
>  <compound>
COS(=O)(=O)c1ccccc1

>  <growth>
89.9% (inactive)

$$$$
>  <compound>
CC(Cc1ccc2c(c1)OCO2)NN (centres undefined)

>  <growth>
91.8% (inactive)

$$$$

Field: next compound
Consider the compound COC12c3c(C)cc(O)c4c(=O)occ(c34)C(=O)C1C13COC(=O)c4c(O)cc(C)c(c41)C(=O)C2C3OC(C)=O (centres undefined) tested on RPMI-8226 leukemia; state its growth. 90.6% (inactive)
